This collection of values is drawn from the NIST ThermoML archive (doi:10.1021/je200050q).

We begin with a simple list: items and their reported activity coefficient.
- EXPERIMENTAL DETAILS: activity coefficient (dimensionless); of the first substance listed, at infinite dilution; xn = mol fraction of the nth substance listed
- REPORTED CONDITIONS: 333.15 K; 101 kPa; Liquid; Chromatography; x1 = 0
Give a plain numeric answer without units written out.

Answered cases to consult:
compound="CCOC(C)=O [ethyl acetate] + CCCCn1cc[n+](C)c1.O=[N+]([O-])[O-]" readout_type="activity coefficient" value_reported=3.04
compound="c1ccccc1 [benzene] + CCCCn1cc[n+](C)c1.O=[N+]([O-])[O-]" readout_type="activity coefficient" value_reported=1.95
compound="CC#N [acetonitrile] + CCCCn1cc[n+](C)c1.O=[N+]([O-])[O-]" readout_type="activity coefficient" value_reported=0.62
compound="Cc1cccc(C)c1 [1,3-dimethylbenzene] + CCCCn1cc[n+](C)c1.O=[N+]([O-])[O-]" readout_type="activity coefficient" value_reported=5.55
compound="Cc1ccc(C)cc1 [1,4-dimethylbenzene] + CCCCn1cc[n+](C)c1.O=[N+]([O-])[O-]" readout_type="activity coefficient" value_reported=5.22

Pending compound:
Could you tell me which activity coefficient is on file for Cc1ccccc1C [1,2-dimethylbenzene] + CCCCn1cc[n+](C)c1.O=[N+]([O-])[O-] ?
4.49

----------
- EXPERIMENTAL DETAILS: activity coefficient (dimensionless); of the first substance listed, at infinite dilution; xn = mol fraction of the nth substance listed
- REPORTED CONDITIONS: 353.15 K; 101 kPa; Liquid; Chromatography; x1 = 0
Param label: returns True when activity coefficient < 2, returns False otherwise, including exact equality.

Here are 3 molecules together with their reported answers.
molecule="CC1CCCCC1 [methylcyclohexane] + CCCCn1cc[n+](C)c1.O=[N+]([O-])[O-]" classification=False
molecule="CO [methanol] + CCCCn1cc[n+](C)c1.O=[N+]([O-])[O-]" classification=True
molecule="CCCO [propan-1-ol] + CCCCn1cc[n+](C)c1.O=[N+]([O-])[O-]" classification=True

Please check: activity coefficient for ClC(Cl)(Cl)Cl [tetrachloromethane] + CCCCn1cc[n+](C)c1.O=[N+]([O-])[O-] , strictly under 2 or not?
False

----------
- EXPERIMENTAL DETAILS: activity coefficient (dimensionless); of the first substance listed, at infinite dilution; xn = mol fraction of the nth substance listed
- REPORTED CONDITIONS: 333.15 K; 101 kPa; Liquid; Chromatography; x1 = 0
READOUT TYPE: activity coefficient
Give a plain numeric answer without units written out.

molecule="CCO [ethanol] + CCCCn1cc[n+](C)c1.O=[N+]([O-])[O-]" value_reported=0.52
molecule="CCCCCCCCC [nonane] + CCCCn1cc[n+](C)c1.O=[N+]([O-])[O-]" value_reported=200

Pending molecule:
Could you tell me which activity coefficient is on file for CCCO [propan-1-ol] + CCCCn1cc[n+](C)c1.O=[N+]([O-])[O-] ?
0.687

----------
- EXPERIMENTAL DETAILS: activity coefficient (dimensionless); of the first substance listed, at infinite dilution; xn = mol fraction of the nth substance listed
- REPORTED CONDITIONS: 303.15 K; 101 kPa; Liquid; Chromatography; x1 = 0
READOUT TYPE: activity coefficient
Give a plain numeric answer without units written out.

compound="Cc1ccccc1 [toluene] + CCCCn1cc[n+](C)c1.O=[N+]([O-])[O-]" value_reported=3.09
compound="c1ccccc1 [benzene] + CCCCn1cc[n+](C)c1.O=[N+]([O-])[O-]" value_reported=1.85
compound="CCCCCCCC [octane] + CCCCn1cc[n+](C)c1.O=[N+]([O-])[O-]" value_reported=168
compound="ClC(Cl)Cl [trichloromethane] + CCCCn1cc[n+](C)c1.O=[N+]([O-])[O-]" value_reported=0.28
compound="ClC(Cl)(Cl)Cl [tetrachloromethane] + CCCCn1cc[n+](C)c1.O=[N+]([O-])[O-]" value_reported=2.09
compound="CCCCCCCCC [nonane] + CCCCn1cc[n+](C)c1.O=[N+]([O-])[O-]" value_reported=263
compound="CC1CCCCC1 [methylcyclohexane] + CCCCn1cc[n+](C)c1.O=[N+]([O-])[O-]" value_reported=45.3
compound="CCCCCCC [heptane] + CCCCn1cc[n+](C)c1.O=[N+]([O-])[O-]" value_reported=105
compound="CCCO [propan-1-ol] + CCCCn1cc[n+](C)c1.O=[N+]([O-])[O-]" value_reported=0.765
compound="Cc1ccc(C)cc1 [1,4-dimethylbenzene] + CCCCn1cc[n+](C)c1.O=[N+]([O-])[O-]" value_reported=5.06

Could you tell me which activity coefficient is on file for CO [methanol] + CCCCn1cc[n+](C)c1.O=[N+]([O-])[O-] ?
0.322

Could you tell me which activity coefficient is on file for C1CCCCC1 [cyclohexane] + CCCCn1cc[n+](C)c1.O=[N+]([O-])[O-] ?
29.8

Could you tell me which activity coefficient is on file for CC#N [acetonitrile] + CCCCn1cc[n+](C)c1.O=[N+]([O-])[O-] ?
0.6

Could you tell me which activity coefficient is on file for Cc1ccccc1C [1,2-dimethylbenzene] + CCCCn1cc[n+](C)c1.O=[N+]([O-])[O-] ?
4.31

Could you tell me which activity coefficient is on file for CCc1ccccc1 [ethylbenzene] + CCCCn1cc[n+](C)c1.O=[N+]([O-])[O-] ?
5.53

Could you tell me which activity coefficient is on file for CC(C)=O [acetone] + CCCCn1cc[n+](C)c1.O=[N+]([O-])[O-] ?
1.11

Could you tell me which activity coefficient is on file for ClCCl [dichloromethane] + CCCCn1cc[n+](C)c1.O=[N+]([O-])[O-] ?
0.464
